Biological target: Retinoic acid receptor gamma (Homo sapiens)
Experiment: In vitro binding affinity towards Retinoic acid receptor gamma evaluated relative to that of All-trans retinoic acids(Mean of ATRA IC50 = 0.42 nM)
observable: Relative IC50

Guide cases for Relative IC50, answers given:
{"molecule-smiles": "CC(C)c1cccc2c(-c3ccccc3)cc(-c3ccc(-c4ccc(C(=O)O)cc4)[nH]3)nc12", "result": 432}
{"molecule-smiles": "COc1cc(-c2ccc(-c3ccc(C(=O)O)cc3)[nH]2)nc2c(C(C)C)cccc12", "result": 834}
{"molecule-smiles": "CC(C)c1cccc2c(Cl)cc(-c3ccc(-c4ccc(C(=O)O)cc4)[nH]3)nc12", "result": 251}

Would you mind telling me what Relative IC50 value was observed for Cc1cc(-c2ccc(-c3ccc(C(=O)O)cc3)[nH]2)nc2c(C(C)C)cccc12 ?
141

What would you report for CCc1cc(-c2ccc(-c3ccc(C(=O)O)cc3)[nH]2)nc2c(C(C)C)cccc12 ?
22

###

Molecular target: Retinoic acid receptor beta (Homo sapiens, UniProt P10826)
Sequence (P10826 whole entry): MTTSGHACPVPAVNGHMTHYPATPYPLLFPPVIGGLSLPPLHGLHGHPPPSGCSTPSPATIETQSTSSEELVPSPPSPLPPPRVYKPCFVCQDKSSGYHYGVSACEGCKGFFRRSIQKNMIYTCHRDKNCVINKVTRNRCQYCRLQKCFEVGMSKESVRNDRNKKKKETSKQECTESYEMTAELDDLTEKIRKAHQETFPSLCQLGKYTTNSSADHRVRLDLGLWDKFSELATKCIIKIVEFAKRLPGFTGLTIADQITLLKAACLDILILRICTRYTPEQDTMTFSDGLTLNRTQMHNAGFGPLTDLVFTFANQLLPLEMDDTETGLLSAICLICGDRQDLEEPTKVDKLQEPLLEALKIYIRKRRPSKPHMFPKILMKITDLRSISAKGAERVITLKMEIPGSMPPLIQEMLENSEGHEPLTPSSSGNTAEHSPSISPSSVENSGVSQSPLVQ
Assay: Antagonistic activity was evaluated in terms of inhibition of Retinoic acid receptor beta transactivation by ATRA (50 nM); Not detectable
Assay type: functional
pIC50: −log10 of the molar value.
observable: pIC50

I am curious: what pIC50 value has been reported for CC(C)c1cccc2c(-c3ccccc3)cc(-c3ccc(-c4ccc(C(=O)O)cc4)[nH]3)nc12 ?
< 5.52

###

Biological target: Retinoic acid receptor beta (Homo sapiens) (UniProt P10826)
Experiment: Retinoid activity at Retinoic acid receptor beta was evaluated relative to that of All-trans retinoic acids(Mean of ATRA EC50 = 1.02 nM)
Cut-off 40 on Relative EC30, inclusive. At or above means rule met; below means rule not met.

Look over these answered cases.
{"molecule-smiles": "Cc1cc(-c2ccc(-c3ccc(C(=O)O)cc3)[nH]2)nc2c(C(C)C)cccc12", "assigned-label": "rule not met"}
{"molecule-smiles": "CCc1cc(-c2ccc(-c3ccc(C(=O)O)cc3)[nH]2)nc2c(C(C)C)cccc12", "assigned-label": "rule not met"}

Is Relative EC30 at least 40? Consider CC(C)c1cccc2ccc(-c3ccc(-c4ccc(C(=O)O)cc4)[nH]3)nc12
rule met

Similarly, CC(C)c1cccc2c(Cl)cc(-c3ccc(-c4ccc(C(=O)O)cc4)[nH]3)nc12 ?
rule not met

Now consider COc1cc(-c2ccc(-c3ccc(C(=O)O)cc3)[nH]2)nc2c(C(C)C)cccc12 .
rule not met

###

Molecular target: Retinoic acid receptor alpha (Homo sapiens, UniProt P10276)
Sequence (P10276 whole entry): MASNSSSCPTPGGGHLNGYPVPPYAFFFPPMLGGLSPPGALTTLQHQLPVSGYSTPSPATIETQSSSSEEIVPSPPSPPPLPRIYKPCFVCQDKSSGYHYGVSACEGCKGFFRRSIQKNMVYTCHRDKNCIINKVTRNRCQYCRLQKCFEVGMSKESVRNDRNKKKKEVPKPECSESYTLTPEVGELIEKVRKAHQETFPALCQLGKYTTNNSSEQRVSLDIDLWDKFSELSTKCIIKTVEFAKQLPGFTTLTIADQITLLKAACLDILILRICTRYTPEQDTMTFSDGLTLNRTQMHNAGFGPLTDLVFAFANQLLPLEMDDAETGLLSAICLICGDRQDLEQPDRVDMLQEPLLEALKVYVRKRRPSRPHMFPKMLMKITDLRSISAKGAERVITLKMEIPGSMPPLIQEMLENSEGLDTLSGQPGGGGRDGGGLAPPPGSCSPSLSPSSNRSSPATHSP
Experiment: Antagonistic activity was evaluated in terms of inhibition of Retinoic acid receptor alpha transactivation by ATRA (50 nM)
observable: IC50 (nM)
Quick reminder: number only, in nM, skip the unit.

Form: Entry = CC(C)c1cccc2c(-c3ccccc3)cc(-c3ccc(-c4ccc(C(=O)O)cc4)[nH]3)nc12 | System = Retinoic acid receptor alpha (Homo sapiens, UniProt P10276) | IC50 = ____
31.2

###

Target: Retinoic acid receptor gamma (Homo sapiens) (UniProt P13631)
Sequence (P13631 whole entry): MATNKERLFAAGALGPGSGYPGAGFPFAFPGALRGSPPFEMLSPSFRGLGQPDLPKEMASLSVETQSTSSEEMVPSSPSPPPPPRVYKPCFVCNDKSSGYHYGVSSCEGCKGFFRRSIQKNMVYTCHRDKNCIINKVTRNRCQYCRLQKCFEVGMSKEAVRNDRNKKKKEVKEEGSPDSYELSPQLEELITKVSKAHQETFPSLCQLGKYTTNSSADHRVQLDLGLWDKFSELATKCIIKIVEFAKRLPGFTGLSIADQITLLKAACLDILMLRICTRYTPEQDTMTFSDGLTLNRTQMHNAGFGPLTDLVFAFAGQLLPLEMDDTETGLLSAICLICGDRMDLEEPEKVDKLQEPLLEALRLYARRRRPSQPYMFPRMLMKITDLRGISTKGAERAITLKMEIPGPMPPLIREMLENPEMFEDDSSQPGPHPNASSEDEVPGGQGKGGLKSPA
Assay: Retinoid activity at Retinoic acid receptor gamma was evaluated relative to that of All-trans retinoic acids(Mean of ATRA EC50 = 0.26 nM)
Quick rule for you: Relative EC30 at 4000 or higher means True, lower means False.

{"molecule-smiles": "COc1cc(-c2ccc(-c3ccc(C(=O)O)cc3)[nH]2)nc2c(C(C)C)cccc12", "target-under-test": "Retinoic acid receptor gamma (Homo sapiens) (UniProt P13631)", "assigned-label": "True"}
{"molecule-smiles": "CCc1cc(-c2ccc(-c3ccc(C(=O)O)cc3)[nH]2)nc2c(C(C)C)cccc12", "target-under-test": "Retinoic acid receptor gamma (Homo sapiens) (UniProt P13631)", "assigned-label": "False"}
{"molecule-smiles": "Cc1cc(-c2ccc(-c3ccc(C(=O)O)cc3)[nH]2)nc2c(C(C)C)cccc12", "target-under-test": "Retinoic acid receptor gamma (Homo sapiens) (UniProt P13631)", "assigned-label": "False"}
{"molecule-smiles": "CC(C)c1cccc2ccc(-c3ccc(-c4ccc(C(=O)O)cc4)[nH]3)nc12", "target-under-test": "Retinoic acid receptor gamma (Homo sapiens) (UniProt P13631)", "assigned-label": "True"}

Has CC(C)c1cccc2c(Cl)cc(-c3ccc(-c4ccc(C(=O)O)cc4)[nH]3)nc12 a recorded Relative EC30 greater than or equal to 4000?
False

###

Molecular target: Retinoic acid receptor beta (Homo sapiens) (UniProt P10826)
Sequence (whole entry): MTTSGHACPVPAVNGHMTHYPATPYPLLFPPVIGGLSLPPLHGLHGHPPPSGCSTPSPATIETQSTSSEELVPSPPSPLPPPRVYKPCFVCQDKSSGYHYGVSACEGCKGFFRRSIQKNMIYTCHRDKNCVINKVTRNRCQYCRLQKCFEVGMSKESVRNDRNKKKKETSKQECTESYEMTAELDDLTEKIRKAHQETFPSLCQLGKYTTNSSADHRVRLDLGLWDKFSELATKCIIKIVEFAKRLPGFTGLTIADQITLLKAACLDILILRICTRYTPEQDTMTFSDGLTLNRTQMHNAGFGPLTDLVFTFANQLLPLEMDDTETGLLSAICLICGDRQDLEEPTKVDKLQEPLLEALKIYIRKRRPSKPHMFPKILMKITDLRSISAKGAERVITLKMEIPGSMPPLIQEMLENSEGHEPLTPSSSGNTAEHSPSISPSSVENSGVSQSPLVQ
Assay: In vitro binding affinity towards Retinoic acid receptor beta evaluated relative to that of All-trans retinoic acids(Mean of ATRA IC50 = 0.52 nM)
Lab note - cut at 80 for Relative IC50: True if strictly below, False if not.

{"molecule-smiles": "CCc1cc(-c2ccc(-c3ccc(C(=O)O)cc3)[nH]2)nc2c(C(C)C)cccc12", "assigned-label": "True"}
{"molecule-smiles": "COc1cc(-c2ccc(-c3ccc(C(=O)O)cc3)[nH]2)nc2c(C(C)C)cccc12", "assigned-label": "False"}
{"molecule-smiles": "CC(C)c1cccc2ccc(-c3ccc(-c4ccc(C(=O)O)cc4)[nH]3)nc12", "assigned-label": "False"}
{"molecule-smiles": "CC(C)c1cccc2c(-c3ccccc3)cc(-c3ccc(-c4ccc(C(=O)O)cc4)[nH]3)nc12", "assigned-label": "False"}

Pending molecule:
Dear reviewer, please state whether Cc1cc(-c2ccc(-c3ccc(C(=O)O)cc3)[nH]2)nc2c(C(C)C)cccc12 has Relative IC50 strictly beneath 80.
True

###

Biological target: Retinoic acid receptor alpha (Homo sapiens)
Assay: Retinoid activity at Retinoic acid receptor alpha was evaluated relative to that of All-trans retinoic acids(Mean of ATRA EC50 = 1.06 nM)
The entries below are paired with their reported Relative EC30.
Give a plain numeric answer without units written out.

Can you look up the measured Relative EC30 of CC(C)c1cccc2ccc(-c3ccc(-c4ccc(C(=O)O)cc4)[nH]3)nc12 for me?
3

Queued: Cc1cc(-c2ccc(-c3ccc(C(=O)O)cc3)[nH]2)nc2c(C(C)C)cccc12
2.8

Here is the next molecule: CC(C)c1cccc2c(Cl)cc(-c3ccc(-c4ccc(C(=O)O)cc4)[nH]3)nc12
1.9

Further, for CCc1cc(-c2ccc(-c3ccc(C(=O)O)cc3)[nH]2)nc2c(C(C)C)cccc12 ?
2.5
